- Experimental target: purified human TTR (Homo sapiens, UniProt P02766)
- Assay summary: Fluorescence polarization (FP) binding assay, ligands to TTR in buffer
- Experimental parameters: log [nM] inhibitor 3.097
Readout: % Fluorescence polarization (mean) (%)

>>> quantitative_readout("C=CCN1CC[C@]23c4c5ccc(O)c4O[C@H]2[C@@H](OCc2cn(CCNCCCCCCOc4cc(OCCCc6c(C)n[nH]c6C)cc(C(=O)O)c4)nn2)CC[C@@]3(O)[C@H]1C5")
54.083
>>> quantitative_readout("Cc1n[nH]c(C)c1CCCOc1cc(OCCCCCCN)cc(C(=O)O)c1")
10.200
>>> quantitative_readout("COc1ccc2c3c1O[C@H]1[C@@H](OCc4cn(CCNCCCCCCOc5cc(OCCCc6c(C)n[nH]c6C)cc(C(=O)O)c5)nn4)CC[C@@]4(O)[C@@H](C2)N(C)CC[C@]314")
63.730
>>> quantitative_readout("C=CCN1CC[C@]23c4c5ccc(O)c4O[C@H]2[C@@H](OCc2cn(CCOCCOCCNCCCCCCOc4cc(OCCCc6c(C)n[nH]c6C)cc(C(=O)O)c4)nn2)CC[C@@]3(O)[C@H]1C5")
63.020
